Below, each entry is listed with its recorded Inhibition [%], 10^−8 M.
Target: CB1 receptor (UniProt P20272)
Construct: other: compound at 10^−7 M; radioligand [3H]-CP55940; other: compound at 10^−8 M
Assay: In-vitro determination of affinity to CB1/CB2-receptors (radioligand [3H]-CP55940 binding)
Settings: compound at 10^−8 M
Write down the numeric answer in % and omit the unit.

> print(dat)
                                   compound               value.kind  unit.of.measurement  quantitative.result
1  Cl.O=C(NN1CC2CCCC2C1)C1=NN(c2ccc(Cl)cc2Cl)C(c2ccc(F)cc2)C1 (centres unmarked) [Example 91A]  Inhibition [%], 10^−8 M                    %                 34.9
2  COc1ccc(C2CC(C(=O)NN3CCCCC3)=NN2c2ccc(Cl)cc2Cl)cc1.Cl (centres unmarked)  Inhibition [%], 10^−8 M                    %                 23.4
3  O=C(NN1CCCCCCC1)C1=NN(c2ccc(Cl)cc2Cl)C(c2ccc(Br)cc2)C1 (centres unmarked)  Inhibition [%], 10^−8 M                    %                 35.2

Enquiry: Entry O=C(N[N+]1([O-])CCCCC1)C1=NN(c2ccc(Cl)cc2Cl)C(c2ccc(Cl)cc2)C1 (centres unmarked) has what Inhibition [%], 10^−8 M?
Return: −12.8

====

Target: CB1 receptor (UniProt P20272)
Construct: other: compound at 10^−7 M; radioligand [3H]-CP55940; other: compound at 10^−8 M
Test: In-vitro determination of affinity to CB1/CB2-receptors (radioligand [3H]-CP55940 binding)
Details: compound at 10^−8 M
VALUE_KIND: Inhibition [%], 10^−8 M (%)
Give the value in % but do not write % after it.

Here are 4 molecules together with their reported answers.
> print(dat)
                                   molecule               value.kind  unit.of.measurement  quantitative.result
1  O=C(N[C@@H]1CCCC[C@H]1OCc1ccccc1)C1=NN(c2ccc(Cl)cc2Cl)C(c2ccc(Cl)cc2)C1 (stereo partly shown)  Inhibition [%], 10^−8 M                    %                 41.2
2  Cl.O=C(NN1CCCCCCC1)C1=NN(c2ccc(Cl)cc2Cl)[C@H](c2ccc(Cl)cc2)C1  Inhibition [%], 10^−8 M                    %                 −5.4
3  COC[C@H]1CCCN1NC(=O)C1=NN(c2ccc(Cl)cc2Cl)C(c2ccc(Cl)cc2)C1 (stereo partly shown)  Inhibition [%], 10^−8 M                    %                 14.3
4  O=C(NCC1CCCCCC1)C1=NN(c2ccc(Cl)cc2Cl)C(c2ccc(Cl)cc2)C1 (stereo not shown)  Inhibition [%], 10^−8 M                    %                 30.2

Enquiry: Need Inhibition [%], 10^−8 M, item O=C(N[C@H]1CCCC[C@@H]1OCc1ccccc1)C1=NN(c2ccc(Cl)cc2Cl)C(c2ccc(Cl)cc2)C1 (stereo partly shown)
Return: 67.5

Enquiry: Queued: Cl.O=C(NN1CCc2ccccc21)C1=NN(c2ccc(Cl)cc2Cl)C(c2ccc(F)cc2)C1 (stereo not shown)
Return: 11.5

Enquiry: Queued: `Cl.O=C(NN1CCc2ccccc21)C1=NN(c2ccc(Cl)cc2Cl)[C@@H](c2ccc(Cl)cc2)C1`
Return: 33.7

====

Recorded Antagonism [%] for the following compounds
Target: recombinant human cannabinoid 1 receptor (CB1) (Homo sapiens, UniProt P21554)
Sequence (P21554 whole entry): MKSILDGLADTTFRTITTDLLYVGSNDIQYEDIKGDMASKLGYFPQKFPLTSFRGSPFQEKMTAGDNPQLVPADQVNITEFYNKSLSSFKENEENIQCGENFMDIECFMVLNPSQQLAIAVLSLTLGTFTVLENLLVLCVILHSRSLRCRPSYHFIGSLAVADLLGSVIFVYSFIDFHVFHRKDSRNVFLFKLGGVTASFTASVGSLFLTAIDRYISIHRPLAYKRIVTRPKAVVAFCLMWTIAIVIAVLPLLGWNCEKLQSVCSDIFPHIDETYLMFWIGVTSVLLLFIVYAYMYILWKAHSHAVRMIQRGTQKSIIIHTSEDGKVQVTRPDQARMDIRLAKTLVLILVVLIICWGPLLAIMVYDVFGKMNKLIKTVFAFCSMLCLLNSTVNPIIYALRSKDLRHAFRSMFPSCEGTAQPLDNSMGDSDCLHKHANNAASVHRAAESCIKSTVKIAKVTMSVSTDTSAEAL
Assay: In vitro determination of antagonism to CB1-receptor ([35S]GTPγS binding assay, CHO cell membranes)
Format: biochemical
Details: compound at 1 μM against agonist WIN 55,212-2 (3 nM to 3 μM); effect of Rimonabant (1 μM) defined as 100%

Here's what some known entries look like.
> print(dat)
                                   compound                         target.under.test  result
1  CCN(C(=O)C1=NN(c2ccc(Cl)cc2Cl)C(c2ccc(Cl)cc2)C1)C1CCCCC1 (centres unmarked)  recombinant human cannabinoid 1 receptor (CB1) (Homo sapiens, UniProt P21554)      2%
2  O=C(NCC1CCCCCC1)C1=NN(c2ccc(Cl)cc2Cl)C(c2ccc(Cl)cc2)C1 (centres unmarked)  recombinant human cannabinoid 1 receptor (CB1) (Homo sapiens, UniProt P21554)     82%
3  CC(C)N(C(=O)C1=NN(c2ccc(Cl)cc2Cl)C(c2ccc(Cl)cc2)C1)C(C)C (centres unmarked)  recombinant human cannabinoid 1 receptor (CB1) (Homo sapiens, UniProt P21554)     18%

Enquiry: Requested field: Antagonism [%]. Item: O=C(C1=NN(c2ccc(Cl)cc2Cl)C(c2ccc(Cl)cc2)C1)N1CCc2ccccc2C1 (centres unmarked)
Return: 59%

Enquiry: How about this compound: O=C(NN1CCCC1)C1=NN(c2ccc(Cl)cc2Cl)C(c2ccc(Br)cc2)C1 (centres unmarked)
Return: 75%

Enquiry: Moving on to O=C(NC1CCCCCCCCCCC1)C1=NN(c2ccc(Cl)cc2Cl)C(c2ccc(Cl)cc2)C1 (centres unmarked)
Return: 14%

Enquiry: Continue with CN(C(=O)C1=NN(c2ccc(Cl)cc2Cl)C(c2ccc(Cl)cc2)C1)C1CCCCC1 (centres unmarked)
Return: 28%

Enquiry: And then CC1CCCC(C)N1NC(=O)C1=NN(c2ccc(Cl)cc2Cl)C(c2ccc(Cl)cc2)C1.Cl (centres unmarked) , what is it?
Return: 63%

====

Target: CB1 receptor (UniProt P20272)
Construct: other: compound at 10^−7 M; radioligand [3H]-CP55940; other: compound at 10^−8 M
Assay: In-vitro determination of affinity to CB1/CB2-receptors (radioligand [3H]-CP55940 binding)
Details: compound at 10^−8 M
Counter-ions that a name gives are not always drawn.
Criterion: Inhibition [%], 10^−8 M meeting or surpassing 10%. Met: Y. Not met: N.

Examples with answers:
> print(dat)
                                   compound              target.under.test  group
1  COc1ccc(C2CC(C(=O)NC3CCCCCC3)=NN2c2ccc(Cl)cc2Cl)cc1 (stereo not shown)  CB1 receptor (UniProt P20272)      Y
2  O=C(NN1CCCCC1)C1=NN(c2ccc(Cl)cc2Cl)C(c2ccc(Br)cc2)C1 (stereo not shown) [Example 60A]  CB1 receptor (UniProt P20272)      Y

Enquiry: Kindly determine if Inhibition [%], 10^−8 M recorded for O=C(NC1CCCCCC1)C1=NN(c2ccc(Cl)cc2Cl)C(c2ccc(Br)cc2)C1 (stereo not shown) is above or exactly 10%.
Return: Y

Enquiry: Cl.O=C(NN1CCCC1)C1=NN(c2ccc(Cl)cc2Cl)C(c2ccc(Cl)cc2)C1 (stereo not shown) ?
Return: Y

Enquiry: How about `Cl.O=C(NN1CCc2ccccc21)C1=NN(c2ccc(Cl)cc2Cl)[C@H](c2ccc(Cl)cc2)C1` ?
Return: Y

Enquiry: Repeat for the following compound: O=C(NN1CC2CCCC2C1)C1=NN(c2ccc(Cl)cc2Cl)[C@H](c2ccc(Cl)cc2)C1 (stereo partly shown) [Example 184, hydrochloride]
Return: N

Enquiry: Likewise for COc1ccc(C2CC(C(=O)NN3CCCCCC3)=NN2c2ccc(Cl)cc2Cl)cc1.Cl (stereo not shown) ?
Return: Y

Enquiry: Can you handle O=C(O)C1=NN(c2ccc(Cl)cc2Cl)C(c2ccc(O)cc2)C1 (stereo not shown) next?
Return: N

====

Molecular target: CB1 receptor (UniProt P20272)
Construct: other: compound at 10^−7 M; radioligand [3H]-CP55940; other: compound at 10^−8 M
Assay: In-vitro determination of affinity to CB1/CB2-receptors (radioligand [3H]-CP55940 binding)
Conditions: compound at 10^−8 M
VALUE_KIND: Inhibition [%], 10^−8 M (%)
Write it as a number; the unit % goes unstated.

Example compounds with recorded Inhibition [%], 10^−8 M:
> print(dat)
                                   compound               value.kind  quantitative.result
1  COc1ccc(C2CC(C(=O)NN3CCc4ccccc43)=NN2c2ccc(Cl)cc2Cl)cc1.Cl (stereo not shown)  Inhibition [%], 10^−8 M                 46.3
2  O=C(NCCC1CCCC1)C1=NN(c2ccc(Cl)cc2Cl)C(c2ccc(Cl)cc2)C1 (stereo not shown)  Inhibition [%], 10^−8 M                 −2.4
3  COC(=O)C1=NN(c2ccc(Cl)cc2Cl)C(c2ccc(Cl)cc2)C1 (stereo not shown)  Inhibition [%], 10^−8 M                  1.9

Enquiry: What measured Inhibition [%], 10^−8 M is associated with CC1Cc2ccccc2N1NC(=O)C1=NN(c2ccc(Cl)cc2Cl)C(c2ccc(Cl)cc2)C1 (stereo not shown) on CB1 receptor (UniProt P20272)?
Return: 32.9

Numbers sourced from patent US8207156B2.
